- System: HOP-92 NSCLC
- procedure.details: NCI-60 one-dose screen, 48 h
- applied.conditions: 10 µM unless noted
- Description: Growth inhibition of the HOP-92 human Non-Small Cell Lung tumor cell line is measured as a screen for anti-cancer activity. Cells are grown in 96 well plates and exposed to the test compound for 48 hours. Compounds are tested at a single concentration, which is 10^-5 M for most compounds. The reported endpoint is percent growth (GI% or GIPRCNT), where numbers from 0 - 100% represent growth inhibition, and numbers from -100% - 0 represent cell death. […]
About 83,000 compounds went through this panel and 20% of them were active in at least one assay; those are over-represented in the sample as a whole. Calls of active or inactive are those of the source. The calls were made as follows: active = growth percent below 10; inactive = the rest.
Parameter call: string, one of t = active, f = inactive

Answered examples (6):
{"compound": "COc1cccc(C(=O)Cn2cc(/C=C(\\C#N)S(=O)(=O)c3ccccc3)c3ccccc32)c1", "assigned.class": "f"}
{"compound": "CNCCNc1nc2ccccc2c2c(=O)c3cccc(OC)c3sc12", "assigned.class": "t"}
{"compound": "CCCCC1CCc2cccc3c(SCC(=O)N(C)c4ccc(Cl)cc4)cc[n+]1c23 (stereo not given)", "assigned.class": "f"}
{"compound": "COC(=O)/C(=C\\c1c(-c2ccccc2)[nH]c2ccccc12)S(C)(=O)=O", "assigned.class": "f"}
{"compound": "COc1cc(/C=C2\\CCC/C(=C\\c3cc(CN4CCOCC4)c(O)c(OC)c3)C2=O)cc(CN2CCOCC2)c1O", "assigned.class": "f"}
{"compound": "NC1(N2SC(S)=C3CCCC=C32)CCCCC1", "assigned.class": "f"}

Input line: # fetch the recorded call for Cc1c(C(=O)OCCO)cc(-c2ccc(Cl)cc2)n1-c1ccc(Cl)cc1Cl here
Output line: f

Input line: Same for O=C(Nc1ccc(F)cc1F)c1cc(Cl)ccc1O
Output line: t

Input line: Note, next up: Cn1c(=O)n(C)c2cc(CNCCNc3ccnc4cc(Cl)ccc34)ccc21
Output line: f

Input line: Thanks! And O=C(c1ccccc1)N(C(=S)NCCc1ccc(Cl)cc1)c1ccccc1 ?
Output line: f

----------
- Tested on: NCI-H460 lung
- procedure.details: NCI-60 one-dose screen, 48 h
- applied.conditions: 10 µM unless noted
This is part of a sample that, as a whole, favours compounds with a hit. Of some 83,000 tested, about 20% had one in any assay. The source made the active and inactive calls. Rule for the calls: active = growth percent below 10; inactive = the rest.
Answer with one of the outcomes label 1 for active, label 0 for inactive

Worked examples, 6 compounds total:
{"compound": "Cn1c(/C=C(\\C#N)c2cccc(C(F)(F)F)c2)nc2c(N3CCOCC3)nc(Cl)nc21", "experimental.target": "NCI-H460 lung", "assigned.class": "label 0"}
{"compound": "NC1(N2SC(S)=C3CCCC=C32)CCCCC1", "experimental.target": "NCI-H460 lung", "assigned.class": "label 0"}
{"compound": "O=C(CN1C=NC2C(N3CCOCC3)=NC=NC21)c1cccc2ccccc12 (stereo not given)", "experimental.target": "NCI-H460 lung", "assigned.class": "label 0"}
{"compound": "O=C(CCN1C(=O)c2ccccc2C1=O)Nc1ccc(Cl)cc1", "experimental.target": "NCI-H460 lung", "assigned.class": "label 0"}
{"compound": "CCOC(=O)c1sc(-c2ccc(OS(=O)(=O)C[C@]34CCC(CC3=O)C4(C)C)c(C=O)c2)nc1C", "experimental.target": "NCI-H460 lung", "assigned.class": "label 1"}
{"compound": "O=C(/C=C/c1cccc(Cl)c1)OCc1ccc2cc1OCC#C/C=C\\C#CCO2", "experimental.target": "NCI-H460 lung", "assigned.class": "label 0"}

Input line: Look up the recorded call for CN(C)c1ccc(/C=C/c2ccnc3c(O)cccc23)cc1 in this test.
Output line: label 1

Input line: Check O=S(=O)(c1ccc(NC(=S)NC23CC4CC(CC(C4)C2)C3)cc1)N1CCCCC1 too.
Output line: label 0

Input line: Entry to check: Cn1c(C(=O)c2cccc3ccccc23)nc2ccccc21
Output line: label 1

Input line: Can you check CC1=C(C(=O)OCC2CCN(C(=O)OC(C)(C)C)CC2)[C@@H](c2cccc(C#N)c2)C2=C(CC(C)(C)CC2=O)N1 next?
Output line: label 1

Input line: Queued: COc1cc(NC(=O)CCSc2nc3ccccc3c(=O)n2Cc2ccccc2)cc(OC)c1OC
Output line: label 0

Input line: Next up: Oc1ccc(-c2nc(-c3ccc4oc5ccc(-c6[nH]c(-c7ccc(O)cc7)nc6-c6ccccc6)cc5c4c3)c(-c3ccccc3)[nH]2)cc1
Output line: label 0

----------
- System: HCT-116 colon
- procedure.details: NCI-60 one-dose screen, 48 h (100 = growth as untreated, 0 = no growth, -100 = all killed)
- applied.conditions: 10 µM unless noted
The panel holds about 83,000 compounds, 20% with a hit somewhere; the sample as a whole holds those more often.
Outcome: class 1 for growth of at least 30%; class 0 for anything lower.

Previously resolved entries follow.
{"compound": "O=Cc1c(OCc2cnnn2CC(=O)Nc2ccc(Br)cc2)ccc2ccccc12", "experimental.target": "HCT-116 colon", "assigned.class": "class 1"}
{"compound": "COc1ccc(C(=O)Nc2ccc3nc(N4CCCCC4)cc(C)c3c2)cc1OC", "experimental.target": "HCT-116 colon", "assigned.class": "class 1"}
{"compound": "C=C[C@@H]1CCC/C=C/[C@@H]2C[C@H](O)C[C@H]2[C@H](O)/C=C/C(=O)O1", "experimental.target": "HCT-116 colon", "assigned.class": "class 0"}

Input line: Confirm if growth reported for the compound CCCN1CCN(c2ccc3nc(-c4ccc5nc(-c6cc(OC)ccc6OC)[nH]c5c4)[nH]c3c2)CC1 is 30% or above.
Output line: class 0

Input line: // query: C=C1C(=O)O[C@H]2[C@H]1CC/C(COC(=O)/C=C\C(=O)O)=C\CC[C@@]1(C)O[C@@H]21
Output line: class 1

Input line: Repeat with O=C(NC(=S)Nc1cccc(NC(=S)NC(=O)c2ccccc2)c1)c1ccccc1
Output line: class 1

Input line: Moving on to COc1cc(CNC(=O)Cc2ccccc2)ccc1OCc1cn(-c2ccc(F)cc2)nn1
Output line: class 1

Input line: Try this compound too: O=S1(=O)N(Cc2ccccc2)[C@@H](Cc2ccccc2)[C@H](O)[C@H](O)[C@H](Cc2ccccc2)N1Cc1ccccc1
Output line: class 0

Input line: Next: O=Cc1c(OCc2cnnn2CC(=O)Nc2ccc(Cl)cc2)ccc2ccccc12
Output line: class 1

Input line: // same read-out, input: O=C(NN1C(=O)CSC1c1ccc(Cl)cc1)c1[nH]c2ccc(F)cc2c1-c1ccccc1 (stereo not given)
Output line: class 1

Input line: # repeat for CCCCC1COc2cccc3c2N1C=C/C3=C\C(=O)N(C)c1ccccc1 (stereo not given)
Output line: class 1

Input line: Cool, now Brc1ccc(Nc2nc3ccccc3nc2Nc2ccc(Br)cc2)cc1
Output line: class 0

Input line: Now try COc1ccc(C2c3ccc4ccccc4c3Oc3ncn(CCCn4ccnc4)c(=N)c32)cc1OC (stereo not given) .
Output line: class 0

Input line: Another compound: COC(=O)c1c2c(c(C)[n+]([O-])c1C)C(=O)C=C(NCc1ccccc1)C2=O
Output line: class 0

Input line: Check CCN(CC)CCCNc1ccnc2cc3ccccc3cc12 too.
Output line: class 1

Input line: Item: COc1cc(/C=C2\CN(C)C/C(=C\c3cc(CN4CCCC4)c(O)c(OC)c3)C2=O)cc(CN2CCCC2)c1O
Output line: class 1

----------
- Test system: HCC-2998 colon
- procedure.details: NCI-60 one-dose screen, 48 h
- applied.conditions: 10 µM unless noted
The panel holds about 83,000 compounds, 20% with a hit somewhere; the sample as a whole holds those more often. Calls of active or inactive are those of the source. How the source made its calls: active means growth percent below 10; inactive means the rest.
One label from this list, please: active, inactive

{"molecule": "CCOC(=O)C(CC(=O)O)=C(C(=O)OCC)C(=O)OCC", "assigned.class": "inactive"}
{"molecule": "CCCCCCCCCCOC(=O)c1ccccc1C(=O)OCCCC", "assigned.class": "inactive"}
{"molecule": "Cc1ccc(NCCNCC(O)CO)c2c(=O)c3ccccc3sc12 (stereo not given)", "assigned.class": "active"}
{"molecule": "N#C/C(=C\\c1c(-c2ccccc2)[nH]c2ccccc12)S(=O)(=O)c1ccccc1", "assigned.class": "inactive"}
{"molecule": "COc1ccc(C2=Nn3c(NN)nnc3SC2)cc1", "assigned.class": "inactive"}

Now, please, on to the next molecule.
Input line: For Cc1cc(OC(=O)c2ccc([N+](=O)[O-])cc2)nc2[nH]c(=O)sc12 , what call appears in the results of this test?
Output line: inactive

----------
- Tested on: CAKI-1 renal
- procedure.details: NCI-60 one-dose screen, 48 h
- applied.conditions: 10 µM unless noted
The panel holds about 83,000 compounds, 20% with a hit somewhere; the sample as a whole holds those more often. Calls of active or inactive are those of the source. How the source made its calls: active means growth percent below 10; inactive means the rest.
Choose one outcome from this list and give only that: TRUE (active), FALSE (inactive)

{"compound": "O=C(Nc1ccsc1C(=O)NC1CCCCC1)c1ccc(F)cc1", "assigned.class": "FALSE"}

# input for lookup
Input line: Hello, I am checking results. What call was entered for CCCCCCCCCCCCCCn1cc(C2=C(c3coc4ccc(OC)cc34)C(=O)NC2=O)c2ccccc21 ?
Output line: FALSE

These entries and their values trace back to PubChem BioAssay (NCI).
